Kindly state IC50 for each of the entries shown.
Experimental system: HCV polymerase (NS5B570n-Con1) (Hepatitis C virus genotype 1b)
Construct: a 21 amino acid C-terminal deletion of full-length HCV polymerase
Experiment summary: HCV NS5B RNA polymerase activity (incorporation of radiolabeled nucleotide into acid insoluble RNA)

Example entries and their recorded answers appear below.
Compound structure	Experimental system	IC50
O=c1ncn(Cc2ccc(Cl)cc2)c2cc(-c3ccc(SCc4cccnc4)cc3)sc12	HCV polymerase (NS5B570n-Con1) (Hepatitis C virus genotype 1b)	313 nM
Cc1nnc(-c2ccc(-c3cc4c(s3)c(=O)ncn4Cc3ccc(Cl)cc3)cc2)o1	HCV polymerase (NS5B570n-Con1) (Hepatitis C virus genotype 1b)	390 nM
Cc1ccc(Cn2cnc(=O)c3sc(-c4ccc(Cl)cc4)cc32)cc1	HCV polymerase (NS5B570n-Con1) (Hepatitis C virus genotype 1b)	131 nM

Below are 5 molecules. Give each one its IC50.
1. O=C(Nc1ccc(-c2cc3c(s2)c(=O)ncn3Cc2ccc(Cl)cc2)cc1)c1cnccn1
2. O=C(Nc1ccc(-c2cc3c(s2)c(=O)ncn3Cc2ccc(Cl)cc2)cc1)c1ccccn1
3. Cc1cc(C(=O)Nc2ccc(-c3cc4c(s3)c(=O)ncn4Cc3ccc(Cl)cc3)cc2)n[nH]1
4. Cc1ccc(Cn2cnc(=O)c3sc(-c4ccc(-c5cc6ncccc6o5)cc4)cc32)cc1
5. Cc1cc(N)n2nc(-c3ccc(-c4cc5c(s4)c(=O)ncn5C[C@H]4CC[C@@H](C)CC4)cc3Cl)cc2n1

Response:
1: 32 nM; 2: 5 nM; 3: 70 nM; 4: 82 nM; 5: 10 nM
